biological target: FES (Homo sapiens (Human), UniProt P07332); test: KINATIV assay; assay type: cell-based; settings: 1 μM, 90 minutes, BCWM.1 cells
Sequence (P07332 whole entry): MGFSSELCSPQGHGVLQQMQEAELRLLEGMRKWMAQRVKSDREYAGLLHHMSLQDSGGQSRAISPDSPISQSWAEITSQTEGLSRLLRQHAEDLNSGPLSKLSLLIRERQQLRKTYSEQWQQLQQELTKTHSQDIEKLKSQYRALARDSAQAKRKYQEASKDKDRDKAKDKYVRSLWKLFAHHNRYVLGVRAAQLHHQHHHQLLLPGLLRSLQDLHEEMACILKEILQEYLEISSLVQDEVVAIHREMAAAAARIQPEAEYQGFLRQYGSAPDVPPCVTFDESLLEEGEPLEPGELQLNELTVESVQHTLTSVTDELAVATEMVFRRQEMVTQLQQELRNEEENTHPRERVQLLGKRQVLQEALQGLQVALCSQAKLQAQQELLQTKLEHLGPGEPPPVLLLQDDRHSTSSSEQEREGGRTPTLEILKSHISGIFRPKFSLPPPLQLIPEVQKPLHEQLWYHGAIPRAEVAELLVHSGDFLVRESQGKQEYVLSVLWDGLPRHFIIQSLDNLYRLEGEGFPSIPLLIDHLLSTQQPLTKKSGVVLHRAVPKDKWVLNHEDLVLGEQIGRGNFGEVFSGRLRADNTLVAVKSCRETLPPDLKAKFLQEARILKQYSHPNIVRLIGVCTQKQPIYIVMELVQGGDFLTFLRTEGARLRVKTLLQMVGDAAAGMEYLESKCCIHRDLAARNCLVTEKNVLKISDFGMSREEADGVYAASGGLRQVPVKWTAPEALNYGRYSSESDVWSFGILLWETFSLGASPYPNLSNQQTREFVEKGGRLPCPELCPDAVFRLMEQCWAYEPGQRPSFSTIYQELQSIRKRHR
Recorded % change of MS signal compared to control sample by entry
Reply numerically in %, unit not repeated.

Take a look at these entries with their results.
C=CC(=O)N1CC[C@@H](Nc2nccc(Nc3ncc(C(=O)Nc4c(C)cccc4C)s3)n2)C1 = −15.6
C=CC(=O)N1CCC(CNc2nccc(Nc3ncc(C(=O)Nc4c(C)cccc4C)s3)n2)C1 (racemic) = −13.3
C=CC(=O)N1CCC(Cn2ccc(Nc3ncc(C(=O)Nc4c(C)cccc4Cl)s3)n2)C1 (stereo not shown) = −15.0

Write down % change of MS signal compared to control sample measured for item C=CC(=O)N1CCCCC(Nc2nccc(Nc3ncc(C(=O)Nc4c(C)cccc4C)s3)n2)C1 (stereo not shown) −20.9
